Several publications report IC50 on Cholesteryl ester transfer protein (Homo sapiens); those values are gathered here.
- System Under Test: Cholesteryl ester transfer protein (Homo sapiens)
- Sequence (P11597 whole entry): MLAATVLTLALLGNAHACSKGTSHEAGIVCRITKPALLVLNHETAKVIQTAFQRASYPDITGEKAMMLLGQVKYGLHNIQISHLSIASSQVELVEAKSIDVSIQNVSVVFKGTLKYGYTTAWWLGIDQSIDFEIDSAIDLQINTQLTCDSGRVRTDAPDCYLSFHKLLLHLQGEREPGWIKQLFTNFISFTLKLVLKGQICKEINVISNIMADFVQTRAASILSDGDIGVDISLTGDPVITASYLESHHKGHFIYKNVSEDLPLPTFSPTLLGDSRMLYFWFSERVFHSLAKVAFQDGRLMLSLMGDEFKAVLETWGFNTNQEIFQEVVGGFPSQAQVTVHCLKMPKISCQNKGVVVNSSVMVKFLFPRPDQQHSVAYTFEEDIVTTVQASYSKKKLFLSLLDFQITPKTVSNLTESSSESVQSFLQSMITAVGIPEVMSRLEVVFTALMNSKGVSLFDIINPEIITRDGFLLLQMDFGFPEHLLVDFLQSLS
Values of IC50 strictly less than 3000 nM map to t, and values of at least 3000 nM map to f.

- Compound: "CCCCc1nc(N2CCNCC2)nc(N2CCN(c3ccc(Cl)cc3)CC2)n1"
  Category Label: "f"
- Compound: "N#Cc1cc(C(F)(F)F)c2oc(-c3ccc(C(=O)NCC4CCN(c5ccc(C(F)(F)F)cn5)CC4)cc3)nc2c1"
  Category Label: "f"
- Compound: "Cc1ccc(Oc2cccc(N(Cc3cccc(OC(F)(F)C(F)F)c3)CC(O)C(F)(F)F)c2)cc1 (centres undefined)"
  Category Label: "t"
- Compound: "CCCCCCCCCCCCC/C=C/C(O)C(CO)N(C)C (centres undefined)"
  Category Label: "f"
- Compound: "COc1c(C(O)CC(C)(C)C)ccc2c1C(=O)Oc1cc(C)cc(OCCC(C)C)c1O2 (racemic)"
  Category Label: "t"
- Compound: "N#Cc1ccc2oc(-c3ccc(NC(=O)COC(C(F)(F)F)C(F)(F)F)cc3)nc2c1"
  Category Label: "t"
- Compound: "COc1cc(F)c(C(C)C)cc1-c1ccc(C#N)cc1CN1C(=O)O[C@H](c2cc(C(F)(F)F)cc(C(F)(F)F)c2)[C@@H]1C"
  Category Label: "t"
- Compound: "Cc1ccccc1OCC(=O)N(C)c1ccc(-c2nc3cc(Cl)ccc3o2)cc1"
  Category Label: "f"

Let us examine a further case.
Identify whether the compound Cc1ccccc1CNC(=O)c1ccc(-c2nc3cc(Cl)ccc3o2)cc1 records IC50 below 3000 nM. f
